# Tested on: CASKI
# method_notes: Primary qHTS to identify gynecologic anti-cancer compounds using libraries of approved drugs and bioactive compounds (AID 1345084); also: nearly all actives have a fitted effect of over 55% in size; also: potency is read from the fitted curve at half-maximal effect
# condition_description: Gynecologic cancer cell panel viability, ATPlite luminescence, 48 h; series mostly up to 57.5 µM
# From the text: National Center for Advancing Translational Sciences [NCATS] Assay Overview: Chemotherapeutic drug responses vary from cancer to cancer and from patient to patient. […] ATPlite is a luminescence based assay reliant on the conversion of a luciferase substrate to light in the presence of ATP. As a cytotoxic compound will suppress growth and decrease the number of cells, the concentration of ATP will decrease, and less light signal will be detected in the well. […]
Records with an inconclusive call do not appear. Calls of active or inactive are those of the source. Calls follow the shape of the dose curve; as a rule, active = well fitted cell-killing curve with a large enough effect; inconclusive = small, poorly fitted or top-dose-only effect, or effect the other way; inactive = flat fitted curve, though single readings scatter.

- compound: "CC(C)C1=CC2C(CC[C@]2(C)O)[C@](C)(O)CC1 (some centres undefined)"
  Potency: "inactive"
- compound: "CCCC(=O)NCCc1csc(-c2ccc(Cl)cc2)n1"
  Potency: "inactive"
- compound: "CCOCc1nc2c(N)nc3ccccc3c2n1CC(C)(C)O"
  Potency: "inactive"
- compound: "COc1ccc(CC2C(=O)NC(C)C(=O)N(C)C3Cc4ccc(cc4)Oc4cc(ccc4OC4OC(CO)C(O)C(O)C4O)CC(C(=O)NC(C)C(=O)NC(C)C(=O)N2C)N(C)C3=O)cc1 (centres undefined)"
  Potency: "631 nM (active)"
- compound: "CC(=O)O[C@@](C)(C(=O)/C=C/C(C)(C)O)[C@H]1[C@H](O)C[C@@]2(C)[C@@H]3CC=C4[C@@H](C=C(O)C(=O)C4(C)C)[C@]3(C)C(=O)C[C@]12C"
  Potency: "4470 nM (active)"
- compound: "CCCOc1ccc(-c2nc(OC)c3ccccc3n2)cc1"
  Potency: "inactive"
- compound: "CNC(=O)c1ccccc1Nc1nc(Nc2ccc(N3CCNCC3)cc2)ncc1Cl"
  Potency: "355 nM (active)"
- compound: "O=C(CCc1nnc2n(Cc3ccc(Cl)cc3)c(=O)c3ccccc3n12)NCCC1=CCCCC1"
  Potency: "inactive"
- compound: "C/C=C/c1ccc2c(c1)[C@@H](C)[C@H](c1ccc(O)cc1)O2"
  Potency: "inactive"

* * *

# tested_system: Luciferin 4-monooxygenase (Photinus pyralis) (UniProt P08659)
# method_notes: Primary firefly luciferase (FLuc) qHTS assay for identification of artifact compounds. (AID 1845220); also: nearly all actives have a fitted effect of over 60% in size;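 as to activity change, negative = inhibition: plate controls were DMSO vehicle for no effect and no enzyme for full effect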
# condition_description: purified firefly luciferase, luminescence, 5 min; series mostly up to 54.1 µM
Calls of active or inactive are those of the source. Calls follow the shape of the dose curve; as a rule, active = well fitted inhibition curve with a large enough effect; inconclusive = small, poorly fitted or top-dose-only effect; inactive = flat fitted curve, though single readings scatter.

- compound: "CC1(C(=O)O)CCCC2(C)C3=CCC4CC3(CCC12)CC4CO (stereo not drawn)"
  activity change, negative = inhibition: "inactive"
- compound: "CC1=C(CO)C(=O)O[C@@H]([C@@H](C)[C@H]2CC[C@H]3[C@@H]4C[C@H]5O[C@]56[C@@H](O)C=CC(=O)[C@]6(C)[C@H]4CC[C@]23C)C1"
  activity change, negative = inhibition: "inactive"
- compound: "CN(C)c1nc(NC2CCC(NCCc3ccc(Br)cc3OC(F)(F)F)CC2)nc2ccccc12 (stereo not drawn)"
  activity change, negative = inhibition: "inactive"
- compound: "Cc1ccc(NC(=O)Nc2cc(C(F)(F)F)ccc2F)cc1Nc1ccc2c(c1)NC(=O)/C2=C\\c1ccc[nH]1"
  activity change, negative = inhibition: "inactive"
- compound: "CCC(C)C(=O)OC1CC(O)C23C4OCC5(C(O)CC2C1(C)C(O)O4)C3C(=O)C(O)C1(C)C(O)(c2ccoc2)CC2OC251 (stereo not drawn)"
  activity change, negative = inhibition: "inactive"
- compound: "C[C@]1(CO)CCC[C@]2(C)C3=C(CCC12)COC3 (stereo partly drawn)"
  activity change, negative = inhibition: "inactive"
- compound: "CCCN1CCN(c2ccc(C(=O)NC3(C(=O)NCC#N)CCCCC3)cc2)CC1"
  activity change, negative = inhibition: "inactive"
- compound: "O=C(OC[C@H]1O[C@H](O[C@]2(CO)O[C@H](CO)[C@@H](O)[C@@H]2O)[C@H](O)[C@@H](O)[C@@H]1O)c1ccccc1"
  activity change, negative = inhibition: "inactive"
- compound: "CC(C)CN(C[C@@H](O)[C@H](Cc1ccccc1)NC(=O)O[C@@H]1CO[C@H]2OCC[C@H]21)S(=O)(=O)c1ccc(N)cc1"
  activity change, negative = inhibition: "inactive"
- compound: "C=C(C)C1CCC2(C(=O)O)CCC3(C(=O)O)C(CCC4C5(C)CCC(O)C(C)(C(=O)O)C5CCC43C)C12 (stereo not drawn)"
  activity change, negative = inhibition: "inactive"
- compound: "Cc1nc(C)c(-c2ccc(C3CCC(CC(=O)O)CC3)cc2)nc1C(N)=O (stereo not drawn)"
  activity change, negative = inhibition: "inactive"
- compound: "CC(=O)C12OC(C)(C)OC1CC1C3CCC4=CC(=O)C=CC4(C)C3(F)C(O)CC12C (stereo not drawn)"
  activity change, negative = inhibition: "inactive"
- compound: "CC1=CC(=O)C(=C(C)C)CC2C1CCC2(C)O (stereo not drawn)"
  activity change, negative = inhibition: "inactive"
- compound: "CCn1cc(NC(=S)Nc2cc(Cl)ccc2OC)c(C(N)=O)n1"
  activity change, negative = inhibition: "inactive"
- compound: "CC(C)(C)Nc1nc(Nc2ccc(C(N)=O)cc2)cc(N)c1C#N"
  activity change, negative = inhibition: "inactive"
- compound: "COCCOc1ccc(N2CCN(CCn3ncc4c3nc(N)n3nc(-c5ccco5)nc43)CC2)cc1"
  activity change, negative = inhibition: "inactive"
- compound: "CC12CCC(=O)C=C1C(O)CC1C2C(O)CC2(C)C1CC[C@]2(O)C(=O)CO (stereo partly drawn)"
  activity change, negative = inhibition: "2.02% [at 11.6 µM] (inactive)"
- compound: "CC(=O)OC1/C(C)=C/C(=O)C(OC(C)=O)C(C)(C)/C=C/C(C)C(=O)C2(OC(C)=O)CC(C)C(OC(=O)c3ccccc3)C12 (stereo not drawn)"
  activity change, negative = inhibition: "inactive"
